Target: T1, FV-short-RQ∗ (FV-short-RQ precleaved at Arg709 with thrombin) (human, UniProt P12259 29-737; P12259 738-2224, Δ756–1458 | Arg^1545 replaced with Gln)
T1 construct: coagulation factor V heavy chain (HC), released by cleavage at Arg709; coagulation factor V, rest of the shortened B-domain with AR2 joined to the light chain; also called FV-short cleaved at Arg709; source: FV-short-RQ (BHK cells, purified), 300 nM incubated with 2 nM thrombin 30 min at 37 °C, quenched with hirudin
T1 sequence (looked up) 1: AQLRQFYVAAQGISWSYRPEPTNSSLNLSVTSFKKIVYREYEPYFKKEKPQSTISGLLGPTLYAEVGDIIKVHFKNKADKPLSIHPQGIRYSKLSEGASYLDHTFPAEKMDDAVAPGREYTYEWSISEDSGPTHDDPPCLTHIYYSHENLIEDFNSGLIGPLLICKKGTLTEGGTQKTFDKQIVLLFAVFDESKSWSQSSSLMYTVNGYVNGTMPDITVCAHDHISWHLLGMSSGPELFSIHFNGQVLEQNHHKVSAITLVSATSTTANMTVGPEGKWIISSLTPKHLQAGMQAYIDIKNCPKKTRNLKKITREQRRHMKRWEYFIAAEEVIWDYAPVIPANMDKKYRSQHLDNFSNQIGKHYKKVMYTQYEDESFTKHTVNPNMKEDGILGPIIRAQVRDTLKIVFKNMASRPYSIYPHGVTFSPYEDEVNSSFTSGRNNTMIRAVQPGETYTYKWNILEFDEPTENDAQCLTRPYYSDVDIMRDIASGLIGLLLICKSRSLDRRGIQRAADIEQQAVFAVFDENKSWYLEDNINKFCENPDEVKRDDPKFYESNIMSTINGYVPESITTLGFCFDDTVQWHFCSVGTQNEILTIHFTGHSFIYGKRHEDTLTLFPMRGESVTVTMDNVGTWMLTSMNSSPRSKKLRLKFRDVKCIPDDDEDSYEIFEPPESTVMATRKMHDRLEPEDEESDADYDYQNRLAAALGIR
T1 sequence (looked up) 2: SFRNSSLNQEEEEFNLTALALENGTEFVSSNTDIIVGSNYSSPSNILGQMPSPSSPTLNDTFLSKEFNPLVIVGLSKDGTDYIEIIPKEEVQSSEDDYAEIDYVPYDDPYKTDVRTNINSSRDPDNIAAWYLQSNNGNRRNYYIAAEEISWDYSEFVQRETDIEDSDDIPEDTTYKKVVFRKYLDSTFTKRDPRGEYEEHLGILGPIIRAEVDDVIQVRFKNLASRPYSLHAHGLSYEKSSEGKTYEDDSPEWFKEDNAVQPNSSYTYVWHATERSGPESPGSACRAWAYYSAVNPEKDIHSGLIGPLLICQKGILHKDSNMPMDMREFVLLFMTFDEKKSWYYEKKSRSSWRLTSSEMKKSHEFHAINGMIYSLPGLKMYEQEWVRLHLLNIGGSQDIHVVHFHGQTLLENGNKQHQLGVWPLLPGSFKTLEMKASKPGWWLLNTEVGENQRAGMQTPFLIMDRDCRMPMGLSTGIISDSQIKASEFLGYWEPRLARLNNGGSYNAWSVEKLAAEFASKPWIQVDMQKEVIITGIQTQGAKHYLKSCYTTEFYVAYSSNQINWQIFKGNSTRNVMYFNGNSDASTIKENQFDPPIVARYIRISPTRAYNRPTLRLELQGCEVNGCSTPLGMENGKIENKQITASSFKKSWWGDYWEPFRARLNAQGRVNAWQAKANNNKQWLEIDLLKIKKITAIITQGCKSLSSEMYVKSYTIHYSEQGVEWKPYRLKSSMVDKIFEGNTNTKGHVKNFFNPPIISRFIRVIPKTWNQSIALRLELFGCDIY
Test: inhibition of prothrombinase (prothrombin activation assay); 0.1 nM cofactor species, 50 μM PCPS, 1.4 μM prothrombin, 3 μM DAPA, TFPIα-BR 0–7 μM, started with 2 nM FXa, assay buffer, 25 °C; Ki from the equation for competitive inhibition
Settings: both partners purified
recorded_endpoint: Ki

Value lookup for Ki; key = KKGFIQRISKGGLIKTKRKRKKQRVKIAYEEIFVKNM (domain or fragment, limits not printed (refs 17, 18); taken as the whole C-terminal tail after Kunitz 3 (mature 240-276); expressed in E. coli, unglycosylated) [TFPIα-BR, fragment containing the BR sequence of TFPIα] 86.1 nM
